# Lookup of reported fold difference in affinity vs parental keyed by entry
- assayTarget: T1, IL-1beta (UniProt P01584 117-269)
- T1 construct: also called IL-1β
- procedureDetails: Biacore
Numeric answer only, unit fold assumed.

Solved entries:
| binder | fold difference in affinity vs parental, fold |
| --- | --- |
| XPA23 Fab, heavy chain T58D (Fab, V domains shown) VH: EVQLLESGGGLVQPGGSLRLSCAASGFTFSKYFMFWVRQAPGKGLEWVSVISPSGGMDRYADSVKGRFTISRDNSKNTLYLQMNSLRAEDTAVYYCARVGYGGNSDYWGQGTLVTVSS VL: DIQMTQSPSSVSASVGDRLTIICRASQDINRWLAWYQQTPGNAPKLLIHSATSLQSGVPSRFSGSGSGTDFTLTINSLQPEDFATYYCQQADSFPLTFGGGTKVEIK | 0.12 |
| XPA23 Fab, heavy chain R59W (Fab, V domains shown) VH: EVQLLESGGGLVQPGGSLRLSCAASGFTFSKYFMFWVRQAPGKGLEWVSVISPSGGMTWYADSVKGRFTISRDNSKNTLYLQMNSLRAEDTAVYYCARVGYGGNSDYWGQGTLVTVSS VL: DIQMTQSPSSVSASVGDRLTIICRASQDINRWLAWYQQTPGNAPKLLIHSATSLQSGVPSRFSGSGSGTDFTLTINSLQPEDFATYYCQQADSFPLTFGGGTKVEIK | 0.09 |
| XPA23 Fab, heavy chain F33E (Fab, V domains shown) VH: EVQLLESGGGLVQPGGSLRLSCAASGFTFSKYEMFWVRQAPGKGLEWVSVISPSGGMTRYADSVKGRFTISRDNSKNTLYLQMNSLRAEDTAVYYCARVGYGGNSDYWGQGTLVTVSS VL: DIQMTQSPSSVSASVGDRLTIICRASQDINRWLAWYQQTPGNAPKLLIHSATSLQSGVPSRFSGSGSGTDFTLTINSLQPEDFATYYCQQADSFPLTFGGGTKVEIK | 0.86 |
| XPA23 Fab, heavy chain Y101E (Fab, V domains shown) VH: EVQLLESGGGLVQPGGSLRLSCAASGFTFSKYFMFWVRQAPGKGLEWVSVISPSGGMTRYADSVKGRFTISRDNSKNTLYLQMNSLRAEDTAVYYCARVGEGGNSDYWGQGTLVTVSS VL: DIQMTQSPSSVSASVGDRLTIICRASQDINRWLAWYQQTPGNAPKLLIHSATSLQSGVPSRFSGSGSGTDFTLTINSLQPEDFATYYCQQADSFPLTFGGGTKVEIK | 0.03 |
| XPA23 Fab, heavy chain S54W (Fab, V domains shown) VH: EVQLLESGGGLVQPGGSLRLSCAASGFTFSKYFMFWVRQAPGKGLEWVSVISPWGGMTRYADSVKGRFTISRDNSKNTLYLQMNSLRAEDTAVYYCARVGYGGNSDYWGQGTLVTVSS VL: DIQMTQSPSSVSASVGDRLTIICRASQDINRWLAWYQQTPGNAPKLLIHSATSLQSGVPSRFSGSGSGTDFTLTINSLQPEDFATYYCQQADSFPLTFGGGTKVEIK | 1.07 |
| XPA23 Fab, heavy chain Y101F (Fab, V domains shown) VH: EVQLLESGGGLVQPGGSLRLSCAASGFTFSKYFMFWVRQAPGKGLEWVSVISPSGGMTRYADSVKGRFTISRDNSKNTLYLQMNSLRAEDTAVYYCARVGFGGNSDYWGQGTLVTVSS VL: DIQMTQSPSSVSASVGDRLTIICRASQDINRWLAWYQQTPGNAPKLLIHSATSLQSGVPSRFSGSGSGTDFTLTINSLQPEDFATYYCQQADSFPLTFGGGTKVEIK | 0.85 |
| XPA23 Fab, heavy chain Y107F (Fab, V domains shown) VH: EVQLLESGGGLVQPGGSLRLSCAASGFTFSKYFMFWVRQAPGKGLEWVSVISPSGGMTRYADSVKGRFTISRDNSKNTLYLQMNSLRAEDTAVYYCARVGYGGNSDFWGQGTLVTVSS VL: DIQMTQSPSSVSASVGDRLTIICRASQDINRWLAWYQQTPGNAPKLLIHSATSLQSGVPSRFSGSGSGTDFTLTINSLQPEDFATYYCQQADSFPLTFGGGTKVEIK | 0.9 |
| XPA23 Fab, heavy chain I51F (Fab, V domains shown) VH: EVQLLESGGGLVQPGGSLRLSCAASGFTFSKYFMFWVRQAPGKGLEWVSVFSPSGGMTRYADSVKGRFTISRDNSKNTLYLQMNSLRAEDTAVYYCARVGYGGNSDYWGQGTLVTVSS VL: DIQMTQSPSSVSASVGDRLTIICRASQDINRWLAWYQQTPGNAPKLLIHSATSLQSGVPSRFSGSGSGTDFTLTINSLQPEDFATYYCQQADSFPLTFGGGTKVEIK | 0.9 |
| XPA23 Fab, heavy chain G55Y (Fab, V domains shown) VH: EVQLLESGGGLVQPGGSLRLSCAASGFTFSKYFMFWVRQAPGKGLEWVSVISPSYGMTRYADSVKGRFTISRDNSKNTLYLQMNSLRAEDTAVYYCARVGYGGNSDYWGQGTLVTVSS VL: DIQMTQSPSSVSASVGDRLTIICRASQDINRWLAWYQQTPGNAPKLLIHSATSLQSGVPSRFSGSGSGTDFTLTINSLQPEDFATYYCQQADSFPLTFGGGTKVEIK | 0.08 |

As a next step, examine the binder that follows.
Input line: Supply measured fold difference in affinity vs parental of XPA23 Fab, heavy chain R59S (Fab, V domains shown) VH: EVQLLESGGGLVQPGGSLRLSCAASGFTFSKYFMFWVRQAPGKGLEWVSVISPSGGMTSYADSVKGRFTISRDNSKNTLYLQMNSLRAEDTAVYYCARVGYGGNSDYWGQGTLVTVSS VL: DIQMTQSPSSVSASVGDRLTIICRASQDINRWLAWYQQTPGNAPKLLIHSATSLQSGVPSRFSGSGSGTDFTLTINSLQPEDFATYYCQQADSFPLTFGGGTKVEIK in your reply.
Output line: 0.13
